Target: T1, human IGSF11 (VSIG3) on cells (human, UniProt Q5DX21 23-431)
T1 sequence: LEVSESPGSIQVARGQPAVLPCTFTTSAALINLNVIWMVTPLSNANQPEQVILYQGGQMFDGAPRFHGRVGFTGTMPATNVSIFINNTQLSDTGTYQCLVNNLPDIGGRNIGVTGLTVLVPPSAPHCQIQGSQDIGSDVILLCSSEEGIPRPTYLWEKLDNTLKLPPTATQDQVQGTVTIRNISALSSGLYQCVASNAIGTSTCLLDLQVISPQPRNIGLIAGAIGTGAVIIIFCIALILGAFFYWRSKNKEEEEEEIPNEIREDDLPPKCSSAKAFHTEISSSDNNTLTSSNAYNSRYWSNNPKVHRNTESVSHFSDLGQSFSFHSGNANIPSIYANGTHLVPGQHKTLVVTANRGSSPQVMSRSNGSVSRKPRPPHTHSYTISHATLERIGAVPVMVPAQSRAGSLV
Experiment: FACS, IgG1-format antibodies; M579-A2-luc cells (M) treated with scrambled control siRNA (SC)
Form field: percentage binding (FACS heat-map) (one value per entry).
Just the number in %, nothing appended.

Which percentage binding (FACS heat-map) is listed for A-006 (IgG1 format) (antibody, V domains shown, human IgG1 format; also called A-006-like ABP) VH: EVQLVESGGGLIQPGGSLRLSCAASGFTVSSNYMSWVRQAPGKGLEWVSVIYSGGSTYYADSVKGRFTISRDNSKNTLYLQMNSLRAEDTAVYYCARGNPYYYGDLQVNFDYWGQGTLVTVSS VL: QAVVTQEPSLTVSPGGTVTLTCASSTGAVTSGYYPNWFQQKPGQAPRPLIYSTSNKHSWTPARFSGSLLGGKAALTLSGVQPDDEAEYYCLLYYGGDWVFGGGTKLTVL ?
75.3

Others:
Which percentage binding (FACS heat-map) is listed for A-026 (IgG1 format) (antibody, V domains shown, human IgG1 format) VH: QVQLQESGPGLVKPSQTLSLTCTVSGGSISSGGYYWSWIRQHPGKGLEWIGYIYYSGSTYYNPSLKSRVTISVDTSKNQFSLKLSSVTAADTAVYYCASWSLGTSNHGWFDPWGQGTLVTVSS VL: QSVLTQPPSASGTPGQRVTISCSGSSSNIGSNTVNWYQQLPGTAPKLLISDNNNRPSGVPDRFSGSKSGTSASLAITGLQAEDEADYYCQSYDSNLSGWVFGGGTKLTVL ?
11.6

Which percentage binding (FACS heat-map) is listed for A-027 (IgG1 format) (antibody, V domains shown, human IgG1 format) VH: QVQLVQSGAEVKKPGSSVKVSCKASGGTFSSYAISWVRQAPGQGLEWMGGIIPIFGTANYAQKFQGRVTITADKSTSTAYMELSSLRSEDTAVYYCARARGSTWGYFDYWGQGTLVTVSS VL: EIVLTQSPASLSLSPGERVTLSCRASQSVSNYLAWYQQKPGQAPRLLIYDASNRATGIPARFSGSGSGTDFTLTISSLEPEDFAVYYCQQRDNWPLTFGGGTKVEIK ?
3.32

Which percentage binding (FACS heat-map) is listed for A-011 (IgG1 format) (antibody, V domains shown, human IgG1 format) VH: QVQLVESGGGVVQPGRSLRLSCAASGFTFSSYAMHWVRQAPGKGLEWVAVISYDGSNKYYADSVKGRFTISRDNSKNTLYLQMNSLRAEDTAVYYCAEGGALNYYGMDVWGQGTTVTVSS VL: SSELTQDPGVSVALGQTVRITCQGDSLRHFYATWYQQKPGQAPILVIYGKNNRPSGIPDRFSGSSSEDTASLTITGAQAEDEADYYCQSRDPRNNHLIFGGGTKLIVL ?
2.05

Just for reference, patent US20240010720A1 is where these values come from.
